# measurement_protocol: Pharmacokinetics in male beagle dogs after oral or 30-min intravenous administration, 1 mg/kg (LC/MS/MS)
# Type: in vivo
# test_context: male, beagle, dog, plasma, po, 1 mg/kg, oral, 1 mg/kg d-amphetamine base, individual dogs, read-out: CL/F of L-lysine-d-amphetamine (converted)
measured_quantity: CL/F (mL/min/kg)
Report the figure in mL/min/kg without appending any unit label.

Find the recorded CL/F belonging to CC(Cc1ccccc1)NC(=O)C(N)CCCCN [L-lysine-d-amphetamine] and report it.
90.4

----------
# measurement_protocol: Pharmacokinetics in male beagle dogs after oral or 30-min intravenous administration, 1 mg/kg (LC/MS/MS)
# Assay type: in vivo
# test_context: male, beagle, dog, plasma, po, 1 mg/kg, oral, 1 mg/kg d-amphetamine base, individual dogs, read-out: F (bioavailability) of L-lysine-d-amphetamine
measured_quantity: bioavailability (%)
Provide the reading as a plain figure in %.

For CC(Cc1ccccc1)NC(=O)C(N)CCCCN (stereo not shown) , what is its reported bioavailability?
34.3
